- Test system: Brassica napus
- Assay procedure: In vivo analyses Part B: drought stress, appearance versus stressed control plants in categories
- Design: key: 0: no positive effect; +: slight positive effect; ++: clear positive effect; +++: strong positive effect
- Test context: spray application, 250 g/ha
Value type: Effect (BRSNS)

# Compound, Value type, Assay value
data = [
    ("O=C(c1cnccc1C(F)(F)F)N(Cc1ccccc1F)N1CCOCC1", "Effect (BRSNS)", "+"),
    ("O=C(c1ccccc1Cl)N(Cc1ccc(F)cc1F)N1CCCC1", "Effect (BRSNS)", "+"),
    ("CC(c1ccc(F)cc1)N(C(=O)c1cnccc1C(F)(F)F)N1CCCC1 (stereo not drawn)", "Effect (BRSNS)", "+"),
]

These measurements were taken from patent US20180206491A1.
